system: A549/ATCC NSCLC; experiment: NCI-60 one-dose screen, 48 h (100 = growth as untreated, 0 = no growth, -100 = all killed); conditions: 10 µM unless noted
About 83,000 compounds went through this panel and 20% of them were active in at least one assay; those are over-represented in the sample as a whole.
Quick list: growth per entry.
observable: growth (%)

> print(dat)
                                   compound  observable  uom  observed.result
1  COc1cc(C)c(Cl)cc1C1=NN(c2ccc(S(N)(=O)=O)cc2)C(/C=C/c2ccccc2)C1 (stereo unspecified)      growth    %               34
2          c1cc(C2CCCCC2)ccc1-c1cnc2nonc2n1      growth    %             34.6
3          Cc1c2c(cc3c1[nH]c1ccccc13)C=NCC2      growth    %             91.5
4  NC(=S)N1N=C(c2ccc(Cl)cc2)CC1c1cc2ccccc2[nH]c1=O (stereo unspecified)      growth    %              110
5                       COc1cc(OC)c(Cl)cc1N      growth    %              105
6  OC(CCCCCCCCC(O)CN1CCc2ccccc2C1)CN1CCc2ccccc2C1 (stereo unspecified)      growth    %              101
